These measurements were taken from patent US20090118135A1.

Measured F Ratio, listed per entry for reference.
measured on: GST-Bcl-B (Homo sapiens)
Sequence (Q9HD36 1-182 limits assumed): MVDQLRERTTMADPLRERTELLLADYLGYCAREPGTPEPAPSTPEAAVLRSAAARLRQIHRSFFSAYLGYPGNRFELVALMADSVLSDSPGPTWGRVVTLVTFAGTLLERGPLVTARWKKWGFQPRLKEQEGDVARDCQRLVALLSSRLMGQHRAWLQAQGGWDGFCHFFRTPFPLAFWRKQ
protocol notes: Bcl-B/FITC-TR3-r8 fluorescence polarization competition (displacement) assay, HTS and dose-response
settings: LOPAC1280 library; fluorescence intensity normalized to plate negative controls

{"columns": ["record smiles", "F Ratio"],
 "data": [
  ["[NH3+][Ru]([NH3+])([NH3+])([NH3+])([NH3+])[O][Ru]([NH3+])([NH3+])([NH3+])([NH3+])[O][Ru]([NH3+])([NH3+])([NH3+])([NH3+])[NH3+]", 1.1267],
  ["Nc1c(S(=O)(=O)O)cc(Nc2ccc(Nc3nc(Cl)nc(Nc4ccc(S(=O)(=O)O)cc4)n3)c(S(=O)(=O)O)c2)c2c1C(=O)c1ccccc1C2=O", 0.1652],
  ["N#C/C(=C\\c1ccc(O)c(O)c1)C(=O)c1ccc(O)c(O)c1", 0.1036],
  ["O=c1cc(O)cc(/C=C/c2ccc(O)c(O)c2)o1", 0.0971]
]}
